Reported pull-down binding Z-score values are given for each entry in this list.
Tested on: TO-N3-2 (biotin conjugate)
ASSAY_EXPLANATION: pull-down binding Z-score (relative to library population); higher = stronger binding
CONDITION_SUMMARY: RNA library: Library-2
Respond with the number and no other words.

INSERT INTO assay_data (seq_text, numeric_readout) VALUES
  ('UGCUCUGGUGACUGAGGACCGCCAGGCA [hsa-mir-4763]', 0.367),
  ('ACAGACUUCAUUAAGAUGUGGUGCUUGCAUACGUAGACCAUUCUUAUGUUGUAAAUGCUGUUACGACCAUGUCAUAUCAACAUCACAUAAAUUAGUCUUGUCUGU', -0.489);

Let us examine a further case.
Reported pull-down binding Z-score ( AUAGUUUGGGGCUCUGCCCUGCUAUGGGAUAACUAU [hsa-let-7a-3] ) = 0.141

====

Reported pull-down binding Z-score values are given for each entry in this list.
Test system: TO-3-N3 (biotin conjugate)
ASSAY_EXPLANATION: pull-down binding Z-score (relative to library population); higher = stronger binding
CONDITION_SUMMARY: RNA library: Library-2
Respond with the number and no other words.

Record excerpt, results attached:
INSERT INTO assay_data (seq_text, numeric_readout) VALUES
  ('GUUCUUCUUCGUAAGAAC', -0.358),
  ('GACGUGAAGGGACCACAUCCCGCUUCAUGUC [hsa-mir-4697]', 0.541),
  ('AGACCUUCCUUCCUUGUCU [hsa-mir-3163]', -0.452);

Reported pull-down binding Z-score ( `GCAUGAUGUUUCAUCUGC` ) = 1.18

Reported pull-down binding Z-score ( UUUCUGAAUUUGUGAGA [hsa-mir-4463] ) = -0.00836

Reported pull-down binding Z-score ( CUUGUGGUGAAGUGGACCGCACAAG [hsa-mir-99a] ) = -0.203

====

System: TO-N3 (biotin conjugate)
ASSAY_EXPLANATION: pull-down binding Z-score (relative to library population); higher = stronger binding
CONDITION_SUMMARY: RNA library: Library-2
MEASURED_QUANTITY: pull-down binding Z-score
Respond with the number and no other words.

Record excerpt, results attached:
INSERT INTO assay_data (seq_text, measurement_target, numeric_readout) VALUES
  ('AUCAAAGUGGGGACUCAUGGGGAGAG [hsa-mir-4284]', 'TO-N3 (biotin conjugate)', 2.65),
  ('UAGGUGUUUUAAUGUCUAAUUUAGGCAUGCCUUCUUACUGUACUGGUUACAGAGAAGGCUAUUUGAACUCUA', 'TO-N3 (biotin conjugate)', -0.806),
  ('UAUAGGAAGGAAAUCUUAU [hsa-mir-6129]', 'TO-N3 (biotin conjugate)', -0.641),
  ('GGUCUCCGACGGAGGCC [IAV_invivo_PB1_2_Motif_32+IAV_invivo_PB1_2_Motif_32]', 'TO-N3 (biotin conjugate)', -0.183),
  ('ACCUUCCAAGGCUCAGAAGGU [hsa-mir-4650-1_4650-2]', 'TO-N3 (biotin conjugate)', -0.702),
  ('GUGCUUGGGACAUUUGAUACCGCAC [IAV_invivo_PB2_1_Motif_30+IAV_invivo_PB2_1_Motif_30]', 'TO-N3 (biotin conjugate)', -0.171);

Reported pull-down binding Z-score ( ACGAUAUAGGUAUGUAUGUAUGUAUGUAUAAAAGCAGGGCAGUAUAUAUAUCGU [hsa-mir-4536-2] ) = 0.862

Reported pull-down binding Z-score ( CGAGGUGG [hsa-mir-4302] ) = 0.973

Reported pull-down binding Z-score ( AGGCUGGUCUCAAACUCCU [hsa-mir-5096] ) = -0.0712

Reported pull-down binding Z-score ( CCGAGUGAUCUCGGU [hsa-mir-8071-1_8071-2] ) = -0.685

Reported pull-down binding Z-score ( AUAGUUUUAGGGUCACACCCACCACUGGGAGAUAACUAU [hsa-let-7a-1] ) = 0.607

Reported pull-down binding Z-score ( UCCCAGGAAAUUCACUUUAGGAAGUCCUAGGA [hsa-mir-5571] ) = -1.1

Reported pull-down binding Z-score ( UGUGGCCUGGGGGUUGAGGACCCCUGCUCUA [hsa-mir-645] ) = 1.74

Reported pull-down binding Z-score ( GAGUUUGGGCAGCUCAGGCAAACC [hsa-mir-181c] ) = 0.492

Reported pull-down binding Z-score ( UUUUGCCAUUAAAAGUAAUGACAAAA [hsa-mir-548f-4] ) = -1.47

Reported pull-down binding Z-score ( GCUUCCGCUCUGCAGAGGC [hsa-mir-6822] ) = 0.0168

Reported pull-down binding Z-score ( GUAGACAAUUCUAGUCUUAC [SHAPE_invitro_SARS-CoV-2_Motif_131] ) = 0.441

Reported pull-down binding Z-score ( AAUAUUGCUUUGCUUGUACAGUAAGUGACAACAGAUGUUUCAUCUCGUUGACUUUCAGGUUACUAUAGCAGAGAUAUU [DMSMaPseq_invitro_SARS-CoV-2_Motif_488] ) = -0.0703

Reported pull-down binding Z-score ( `AUAACAAUACUAGAUGGAAUUUCACAGUAUUCACUGAGACUCAUUGAUGCUAUGAUGUUCACAUCUGAUUUGGCUACUAACAAUCUAGUUGU` ) = 0.384
